# Test system: VCaP cells
# experiment description: VCaP growth inhibition assay
# Assay type: cell-based
# condition info: 30 pM R1881, 9 days, CTG
# Protocol: VCaP cells (ATCC Cat #CRL-2876) are plated at 1×10^4 cells per well of a white plastic 96-well cluster plate (Thermo Scientific Nunc Cat #165306) in 100 uL phenol red-free DMEM (Gibco Cat #21063-029) media with 5% CSS (Omega Scientific Cat #FB-04). Cluster plates are returned to the incubator (37*C/5% CO2) for 72 hours prior to treatment. […]
IC50 for assorted compounds
test readout: IC50

# compound, endpoint result
measured = [
    ("CNC(=O)N1CCc2c(c(N3CCCc4cc(-c5cnn(C)c5)c(C(F)F)cc43)nn2C2CCN(C(=O)COCCOCC3CCN(c4ncc(C(=O)NC5C(C)(C)C(Oc6ccc(C#N)c(Cl)c6)C5(C)C)cn4)CC3)CC2)C1 (centres unmarked) [Compound 104]", "0.1 to 1 nM"),
    ("COc1cc(OC2C(C)(C)C(NC(=O)c3ccc(N4CC[C@@H](N5CCC(n6nc(N7CCCc8cc(-c9cnn(C)c9)c(C(F)F)cc87)c7c6CCN(C(C)=O)C7)CC5)C4)cc3)C2(C)C)ccc1C#N (some centres unmarked) [Compound 337]", "0.1 to 1 nM"),
]
